Data credit: paper PMC7982521

AUC0-t by entry:
procedureText: Multi-component pharmacokinetics in rat plasma after oral administration of RB, RPA or RB-RPA extracts (UPLC-HRMS, non-compartmental analysis)
Type: in vivo, Sprague-Dawley rats
experimentalContext: male, Sprague-Dawley, rat, plasma, po, 45 g/kg, rat plasma, oral administration of single extract RPA, mean ± SD, n = 7; read-out: AUC0-t
Output spec: scalar in ng·h/mL, unitless text.

COC(=O)c1cc(O)c(O)c(O)c1 [Methyl gallate] : 141

Now for a further compound.
Qu. Returns the measured AUC0-t for the input compound. Input: `C[C@@]12C[C@@]3(O)O[C@@H](O1)[C@]1(COC(=O)c4ccccc4)[C@H]3C[C@@]12O[C@@H]1O[C@H](CO)[C@@H](O)[C@H](O)[C@H]1O`
Ans. 4260
